Every entry's value here was drawn from patent US20150119394A1.

Test: Oral absorption in Swiss mice
Type: in vivo
Details: male, mouse, plasma, po, 10 mg/kg p.o., read-out: AUC0-infinity
Experimental: Oral absorption of different compounds was ascertained in Swiss mice. The procedure followed was as detailed below: Species: Swiss mice, overnight fasted state Sex and weight: Male, in the weight range of 25-30 g Number of animals: 18 animals divided into six groups (n=3) and bled as follows: […] On the day of analysis, plasma samples are thawed at room temperature. […] The calibration curve is prepared in the range of 0.5 to 5000 ng/mL in mouse plasma for quantitation.
attribute.measured: AUC(0-inf) (ng·h/mL)

{"smi": "NC(=O)c1[nH]c2ccc(Cl)cc2c1S(=O)(=O)N1CCO[C@H](COc2ccc(-c3ccnc(Cl)c3)cc2)C1", "readout.units": "ng·h/mL", "AUC(0-inf)": 2200}

1: Cc1ccc(OC[C@@H]2CN(S(=O)(=O)c3c(C(N)=O)[nH]c4ccc(Cl)cc34)CCO2)cc1-c1ccccc1
2: NC(=O)c1[nH]c2ccc(Cl)cc2c1S(=O)(=O)N1CCO[C@H](COc2cccc(-c3ccccc3)c2)C1
Task: Would you let me know which has the greater AUC(0-inf) value, 1 or 2 ? Write the label of whichever entry you select.
Output: 2

###

target: intracellular kinase domain of human IGF-1R (GST fusion protein) (Homo sapiens); construct: IGFRK and IRK enzyme used for the assay was intracellular kinase domain of human IGF-1R; GST; assay: In vitro IGF-1R kinase assay (HTRF); conditions: ATP 20 μM, IGFRK 0.25 nM
attribute.measured: IC50

As a guide, the following entries are already answered.
{"compound": "COc1cc(-c2ccc(OC[C@@H]3CN(S(=O)(=O)c4c(C(N)=O)[nH]c5ccc(Cl)cc45)CCO3)cc2)ccn1 [Compound 47]", "IC50": "< 0.1 µM"}
{"compound": "NC(=O)c1[nH]c2ccc(Cl)cc2c1S(=O)(=O)N1CCO[C@H](COc2ccccc2-c2cncnc2)C1 [Compound 60]", "IC50": "> 1 µM"}
{"compound": "NC(=O)c1[nH]c2ccc(Cl)cc2c1S(=O)(=O)N1CCO[C@H](COc2ccccc2-c2cccc(F)c2)C1 [Compound 64]", "IC50": "> 1 µM"}

Task: Please look up its IC50: NC(=O)c1[nH]c2ccc(Cl)cc2c1S(=O)(=O)N1CCO[C@H](COc2ccc(-c3ccc(C(F)(F)F)nc3)cc2)C1 [Compound 35]
Output: > 1 µM

Task: Please look up its IC50: NC(=O)c1[nH]c2ccc(Cl)cc2c1S(=O)(=O)N1CCO[C@H](COc2ccccc2-c2ccc(F)nc2)C1 [Compound 59]
Output: > 1 µM

Task: Please look up its IC50: NC(=O)c1[nH]c2ccc(Cl)cc2c1S(=O)(=O)N1CCO[C@H](COc2ccccc2-c2ccccc2)C1 [Compound 54]
Output: > 1 µM

###

target: intracellular kinase domain of human IGF-1R (GST fusion protein) (Homo sapiens, UniProt P08069); construct: IGFRK and IRK enzyme used for the assay was intracellular kinase domain of human IGF-1R; GST; assay: In vitro IGF-1R kinase assay (HTRF); conditions: ATP 20 μM, IGFRK 0.25 nM
Sequence (P08069 999-1274 limits assumed): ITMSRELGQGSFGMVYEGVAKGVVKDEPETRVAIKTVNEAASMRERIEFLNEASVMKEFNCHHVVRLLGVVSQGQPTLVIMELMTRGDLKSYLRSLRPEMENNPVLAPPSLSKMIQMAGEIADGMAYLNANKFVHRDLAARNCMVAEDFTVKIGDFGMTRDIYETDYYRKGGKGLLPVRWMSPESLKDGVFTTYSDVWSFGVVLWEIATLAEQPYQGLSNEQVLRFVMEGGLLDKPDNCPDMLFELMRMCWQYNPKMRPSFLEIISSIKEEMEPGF
attribute.measured: IC50

Task: Please look up its IC50: `NC(=O)c1[nH]c2ccc(Cl)cc2c1S(=O)(=O)N1CCO[C@H](COc2ccccc2-c2ccccc2F)C1`
Output: > 1 µM

Task: Please look up its IC50: `NC(=O)c1[nH]c2ccc(Cl)cc2c1S(=O)(=O)N1CCO[C@H](COc2cccc(-c3cccc(F)c3)c2)C1`
Output: > 0.1 µM

Task: Please look up its IC50: COc1ccccc1-c1ccc(OC[C@@H]2CN(S(=O)(=O)c3c(C(N)=O)[nH]c4ccc(Cl)cc34)CCO2)cc1 [Compound 43]
Output: > 0.1 µM

Task: Please look up its IC50: `NC(=O)c1[nH]c2ccc(Cl)cc2c1S(=O)(=O)N1CCO[C@H](COc2ccccc2-c2cccnc2F)C1`
Output: > 1 µM

Task: Please look up its IC50: `COc1ccc(-c2ccccc2OC[C@@H]2CN(S(=O)(=O)c3c(C(N)=O)[nH]c4ccc(Cl)cc34)CCO2)cn1`
Output: > 1 µM

Task: Please look up its IC50: `NC(=O)c1[nH]c2ccc(Cl)cc2c1S(=O)(=O)N1CCO[C@H](COc2cncc(-c3cc(C(F)(F)F)ccc3F)c2)C1`
Output: > 1 µM

Task: Please look up its IC50: `NC(=O)c1[nH]c2ccc(Cl)cc2c1S(=O)(=O)N1CCO[C@H](COc2ncnc3ccccc23)C1`
Output: > 0.1 µM
